# test-conditions: in ethyl acetate, 298.15 K
measured-parameter: solubility (mole fraction)
Write the number on its own, no unit after it.

Task: solubility (mole fraction) for `COc1cccc(C(=O)O)c1OC` ?
Output: 0.0271

* * *

# test-conditions: in isopropanol, 293.15 K
measured-parameter: solubility (mole fraction)

Task: solubility (mole fraction) for `COc1cccc(C(=O)O)c1OC` ?
Output: 0.0175

* * *

# test-conditions: in n-butanol, 278.15 K
measured-parameter: solubility (mole fraction)

Task: solubility (mole fraction) for `COc1cccc(C(=O)O)c1OC` ?
Output: 0.00922

* * *

# test-conditions: in methyl acetate, 278.15 K
measured-parameter: solubility (mole fraction)
Write the number on its own, no unit after it.

Task: solubility (mole fraction) for `COc1cccc(C(=O)O)c1OC` ?
Output: 0.0166
